Reference for the values: ChEMBL document CHEMBL1201862

test: HEp-2 cell cytotoxicity, dose response, cytotoxicity control for RSV inhibitor project, HTS (AID 2410); type: functional; settings: human respiratory syncytial virus
Calls of active or inactive are those of the source. No rule for the calls is given here.
Measured CC50, listed per entry.

- Compound: "CCOC(=O)C1=C(C)N=c2s/c(=C/c3ccc(OCC(=O)O)cc3)c(=O)n2C1c1ccc(F)cc1 (configuration not stated)"
  CC50: "39.8 µM (active)"
- Compound: "c1ccc2c(c1)nnn2-c1ncnc2sccc12"
  CC50: "46.8 µM (active)"
- Compound: "NC(=O)NNC1=Nc2cccc3cccc1c23"
  CC50: "> 50 µM (active)"
- Compound: "CCNC(=O)Nc1ccccc1C(=O)OC"
  CC50: "27.7 µM (active)"
- Compound: "COC(=O)c1cc2c(-c3ccccc3)c(C)c3ccccn3c-2c1C(=O)OC"
  CC50: "27 µM (active)"
- Compound: "CC(C)C1C(c2ccccc2)N(C)C(c2ccccc2)CC1(O)c1ccccc1 (configuration not stated)"
  CC50: "25.3 µM (active)"
- Compound: "COC(=O)C1=C(C)N(c2cc(C)cc(C)c2)/C(=C/c2ccc(O)cc2)C1=O"
  CC50: "18.4 µM (active)"
